These data points were gathered from paper PMC11279727.

- Tested on: Candida glabrata ATCC 90030
- assay overview: In vitro susceptibility, CLSI M27-A3 broth microdilution (MIC/MFC)
- Type: cell-based
- applied conditions: Nakaseomyces glabratus, ATCC90030; C. glabrata ATCC 90030
metric name: MFC

Return reported MFC; argument: O=C(/C=C/c1ccccc1O)c1ccccc1 [2-HC, 2-hydroxychalcone]
> 125 µg/mL

Which MFC value is on record for OC(Cn1cncn1)(Cn1cncn1)c1ccc(F)cc1F [FCZ, Fluconazole, reference compound] ?
> 64 µg/mL

---
# input compound: Clc1ccccc1C(c1ccccc1)(c1ccccc1)n1ccnc1 [CTZ, clotrimazole, reference compound] ; wanted: its MFC
> 2 µg/mL
